- System: CCRF-CEM
- experimental-protocol: In vitro cytotoxicity in CEM cells.
- Type: functional, cell-based
- conditions: Homo sapiens

{"smi": "Nc1nc(O)c2ncn([C@@H]3C=C(CO)[C@@H](O)[C@H]3O)c2n1", "IC50": "> 100 µM"}
{"smi": "Nc1nc(=O)n([C@@H]2C=C(CO)[C@@H](O)[C@H]2O)cc1F", "IC50": "51.8 µM"}
{"smi": "O=c1[nH]c(=O)n([C@@H]2C=C(CO)[C@@H](O)[C@H]2O)cc1F", "IC50": "> 100 µM"}
{"smi": "OCC1=C[C@H](n2cnc3c(O)ncnc32)[C@@H](O)[C@H]1O", "IC50": "> 100 µM"}
{"smi": "Nc1ccn([C@H]2C=C(CO)[C@H](O)[C@@H]2O)c(=O)n1", "IC50": "> 100 µM"}
{"smi": "Nc1ncnc2c1ncn2[C@@H]1C=C(CO)[C@@H](O)[C@H]1O", "IC50": "1.2 µM"}
